The compounds listed here are annotated with their Relative Activity to a positive control compound (troglitazone = 1).
Molecular target: human PPARγ (Homo sapiens)
Construct: expressed in transfected cells; host or cells: CV-1 cells
Sequence (P37231 204-505): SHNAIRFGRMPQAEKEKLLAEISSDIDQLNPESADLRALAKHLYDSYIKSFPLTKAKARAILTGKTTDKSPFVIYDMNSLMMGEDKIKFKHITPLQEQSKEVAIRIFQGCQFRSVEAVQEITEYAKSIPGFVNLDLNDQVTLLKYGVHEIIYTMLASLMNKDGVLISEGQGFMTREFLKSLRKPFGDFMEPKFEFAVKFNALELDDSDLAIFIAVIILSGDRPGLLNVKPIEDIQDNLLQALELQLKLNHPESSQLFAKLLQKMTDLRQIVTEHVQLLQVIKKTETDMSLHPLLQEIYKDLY
Experiment: Luciferase assay using human PPARγ (Gal4-PPARγ LBD chimeric receptor, CV-1 cells)
Assay type: cell-based
Details: PPARγ agonistic activity, compound 10 μM, luciferase activity of troglitazone (10 μM) defined as 1.0, 42 hours
// return just the number, without any unit appended

Worked cases, answers included:
Cc1oc(-c2ccc3c(c2)OCO3)nc1CCOCC#CCSCC(=O)O    2.3
Cc1oc(-c2ccccc2)nc1CCOCC#CCSCC(=O)O    2.6
Cc1oc(-c2ccccc2)nc1CCOCCCCSCC(=O)O    2.3

Proceeding to the next compound to report its Relative Activity to a positive control compound (troglitazone = 1).
I am curious: what Relative Activity to a positive control compound (troglitazone = 1) value has been reported for `Cc1ccc(-c2nc(CCOCC#CCSCC(=O)O)c(C)o2)cc1` ?
2.7
